Recorded values, source ChEMBL document CHEMBL1944602.

target: NAD-dependent protein deacetylase sirtuin-1 (Homo sapiens); assay: Inhibition of recombinant human SitT1 at 60 uM by Fluor de Lys fluorescence assay
As shown below, each of these compounds has a reported inhibition value.

>  <Compound String>
CN(C)CCCCNC(=O)c1ccc(NC(=S)NC(=O)c2ccc(C(C)(C)C)cc2)cc1

>  <Unit String>
%

>  <inhibition>
72.5

$$$$
>  <Compound String>
CN(C)CCCCC(=O)Nc1ccc(NC(=S)NC(=O)c2ccc(C(C)(C)C)cc2)cc1.Cl

>  <Unit String>
%

>  <inhibition>
73.9

$$$$
>  <Compound String>
CN(C)CCCCC(=O)Nc1ccc(NC(=S)NC(=O)c2ccc(C(C)(C)C)c(Br)c2)cc1

>  <Unit String>
%

>  <inhibition>
93.5

$$$$
>  <Compound String>
Cc1ccccc1C(=O)NC(=S)Nc1ccc(NC(=O)CCCCN(C)C)cc1

>  <Unit String>
%

>  <inhibition>
9.9

$$$$
>  <Compound String>
CN(C)CCCCC(=O)Nc1ccc(NC(=S)NC(=O)c2ccc(Cl)cc2)cc1

>  <Unit String>
%

>  <inhibition>
53.4

$$$$
>  <Compound String>
CCCc1ccc(C(=O)NC(=S)Nc2ccc(NC(=O)CCCCN(C)C)cc2)cc1

>  <Unit String>
%

>  <inhibition>
50.9

$$$$
>  <Compound String>
COc1ccc(C(=O)NC(=S)Nc2ccc(NC(=O)CCCCN(C)C)cc2)cc1

>  <Unit String>
%

>  <inhibition>
48.5

$$$$
>  <Compound String>
CN(C)CCCC(=O)Nc1ccc(NC(=S)NC(=O)c2ccc(C(C)(C)C)cc2)cc1.Cl

>  <Unit String>
%

>  <inhibition>
85.2

$$$$
>  <Compound String>
CN(C)CCCCC(=O)Nc1ccc(NC(=S)NC(=O)c2cccc(Cl)c2)cc1

>  <Unit String>
%

>  <inhibition>
29.2

$$$$
>  <Compound String>
CN(C)CCCCCCCC(=O)Nc1ccc(NC(=S)NC(=O)c2ccc(C(C)(C)C)cc2)cc1.Cl

>  <Unit String>
%

>  <inhibition>
70.9

$$$$

* * *

biological target: NAD-dependent protein deacetylase sirtuin-1 (Homo sapiens) (UniProt Q96EB6); assay: Inhibition of SirT1 in human ARN8 cells assessed as p53 activation at 10 uM by beta-galactosidase reporter gene assay relative to control; format: cell-based
Sequence (Q96EB6 whole entry): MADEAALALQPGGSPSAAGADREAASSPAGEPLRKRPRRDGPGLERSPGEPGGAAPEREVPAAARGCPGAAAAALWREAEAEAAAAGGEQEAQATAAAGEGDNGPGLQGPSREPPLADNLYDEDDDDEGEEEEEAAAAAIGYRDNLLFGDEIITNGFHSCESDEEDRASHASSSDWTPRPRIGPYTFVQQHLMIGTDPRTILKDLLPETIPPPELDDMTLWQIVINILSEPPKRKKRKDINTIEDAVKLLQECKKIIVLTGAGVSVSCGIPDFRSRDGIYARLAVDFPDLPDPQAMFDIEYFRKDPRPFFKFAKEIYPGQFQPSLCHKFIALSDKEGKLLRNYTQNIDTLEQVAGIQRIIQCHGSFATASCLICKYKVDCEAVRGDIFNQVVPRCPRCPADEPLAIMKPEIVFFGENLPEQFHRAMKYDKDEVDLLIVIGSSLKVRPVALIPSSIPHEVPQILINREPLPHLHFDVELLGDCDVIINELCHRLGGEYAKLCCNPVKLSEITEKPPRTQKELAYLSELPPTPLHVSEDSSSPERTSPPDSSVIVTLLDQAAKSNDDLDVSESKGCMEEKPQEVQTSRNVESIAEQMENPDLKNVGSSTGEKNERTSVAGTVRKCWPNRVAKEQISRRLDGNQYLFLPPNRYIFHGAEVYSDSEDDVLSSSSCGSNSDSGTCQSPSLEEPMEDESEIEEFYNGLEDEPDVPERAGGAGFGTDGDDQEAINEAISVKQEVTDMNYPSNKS
As shown below, each of these compounds has a reported fold change (FC) value.

>  <Compound String>
CCCCCc1ccc(C(=O)NC(=S)Nc2ccc(NC(=O)CCCCN(C)C)cc2)cc1

>  <fold change (FC)>
1.1

$$$$
>  <Compound String>
Cc1ccc(C(=O)NC(=S)Nc2ccc(NC(=O)CCCCN(C)C)cc2)cc1

>  <fold change (FC)>
1.1

$$$$
>  <Compound String>
CN(C)CCCCC(=O)Nc1ccc(NC(=S)NC(=O)c2ccc(C(C)(C)C)c(Br)c2)cc1

>  <fold change (FC)>
1.1

$$$$
>  <Compound String>
CN(C)CCCCC(=O)Nc1ccc(NC(=S)NC(=O)c2ccccc2)cc1

>  <fold change (FC)>
0.97

$$$$
>  <Compound String>
Cc1ccccc1C(=O)NC(=S)Nc1ccc(NC(=O)CCCCN(C)C)cc1

>  <fold change (FC)>
0.98

$$$$

* * *

molecular target: NAD-dependent protein deacetylase sirtuin-1 (Homo sapiens); experiment: Inhibition of SirT1 in human ARN8 cells assessed as p53 activation at 10 uM by beta-galactosidase reporter gene assay relative to control; format: cell-based
Use 1 as the dividing line for fold change (FC), with the line itself on the T side and lower values as F.

>  <Compound String>
CN(C)CCCCNC(=O)c1ccc(NC(=S)NC(=O)c2ccc(C(C)(C)C)cc2)cc1

>  <Assigned Category>
T

$$$$
>  <Compound String>
CCCc1ccc(C(=O)NC(=S)Nc2ccc(NC(=O)CCCCN(C)C)cc2)cc1

>  <Assigned Category>
T

$$$$
>  <Compound String>
CN(C)CCCCC(=O)Nc1ccc(NC(=S)NC(=O)c2ccc(Cl)c(Cl)c2)cc1

>  <Assigned Category>
T

$$$$
>  <Compound String>
CN(C)CCCCC(=O)Nc1ccc(NC(=S)NC(=O)c2ccc(Br)cc2)cc1

>  <Assigned Category>
T

$$$$
>  <Compound String>
CN(C)CCCCC(=O)Nc1ccc(NC(=S)NC(=O)c2cccc(Cl)c2)cc1

>  <Assigned Category>
T

$$$$
>  <Compound String>
COc1cccc(C(=O)NC(=S)Nc2ccc(NC(=O)CCCCN(C)C)cc2)c1

>  <Assigned Category>
T

$$$$
>  <Compound String>
CN(C)CCCCC(=O)Nc1ccc(NC(=S)NC(=O)c2ccccc2Cl)cc1

>  <Assigned Category>
T

$$$$
>  <Compound String>
CCCCc1ccc(C(=O)NC(=S)Nc2ccc(NC(=O)CCCCN(C)C)cc2)cc1.Cl

>  <Assigned Category>
F

$$$$
>  <Compound String>
COc1ccc(C(=O)NC(=S)Nc2ccc(NC(=O)CCCCN(C)C)cc2)cc1

>  <Assigned Category>
T

$$$$
>  <Compound String>
Cc1cccc(C(=O)NC(=S)Nc2ccc(NC(=O)CCCCN(C)C)cc2)c1

>  <Assigned Category>
F

$$$$
